target: BACH1/MafK (Homo sapiens, UniProt O14867+O60675); experiment: Inhibition of Bach1-Mafk interaction (unknown origin) by luciferase reporter gene based enzyme fragment complementation assay
Sequence (O60675 whole entry, the tested form may be a part): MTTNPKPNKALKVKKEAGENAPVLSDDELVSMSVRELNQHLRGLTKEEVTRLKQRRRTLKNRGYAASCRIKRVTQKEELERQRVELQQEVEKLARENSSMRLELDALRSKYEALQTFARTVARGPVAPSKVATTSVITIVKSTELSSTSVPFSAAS
Sequence (O14867 whole entry, the tested form may be a part): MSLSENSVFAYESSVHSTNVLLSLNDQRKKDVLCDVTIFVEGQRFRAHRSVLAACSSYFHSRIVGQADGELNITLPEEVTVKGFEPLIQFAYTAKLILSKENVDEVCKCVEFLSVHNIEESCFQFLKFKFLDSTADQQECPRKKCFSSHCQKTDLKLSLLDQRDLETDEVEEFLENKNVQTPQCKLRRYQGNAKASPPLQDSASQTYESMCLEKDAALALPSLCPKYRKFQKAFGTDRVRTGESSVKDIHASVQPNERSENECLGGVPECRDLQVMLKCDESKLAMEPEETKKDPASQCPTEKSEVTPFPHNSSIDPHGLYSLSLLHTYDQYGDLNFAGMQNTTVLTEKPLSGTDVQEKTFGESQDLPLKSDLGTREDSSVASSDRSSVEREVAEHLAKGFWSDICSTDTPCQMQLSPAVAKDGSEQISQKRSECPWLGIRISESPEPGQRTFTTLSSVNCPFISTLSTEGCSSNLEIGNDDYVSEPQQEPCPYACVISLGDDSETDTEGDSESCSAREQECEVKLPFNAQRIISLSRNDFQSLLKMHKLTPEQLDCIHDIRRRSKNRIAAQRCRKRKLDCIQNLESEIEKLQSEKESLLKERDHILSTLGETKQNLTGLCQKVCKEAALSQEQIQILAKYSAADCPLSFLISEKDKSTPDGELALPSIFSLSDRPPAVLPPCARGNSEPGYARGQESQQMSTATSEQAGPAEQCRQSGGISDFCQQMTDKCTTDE
measured-endpoint: pIC50
Scale: negative log10 of molar concentration, which is what pIC50 denotes.

{"compound": "CN(C)c1c(N(C)CCCN=C=S)c(=O)c1=O", "number": 5.50}

// lookup pIC50 | system=BACH1/MafK (Homo sapiens, UniProt O14867+O60675) | key= C[S+]([O-])CCCCN=C=S (racemic)
4.80

* * *

In this section we review reported solubility kinetic values for a set of molecules.
assay: Kinetic solubility of the compound at pH 7.4 by CLND method; type: physicochemical; conditions: buffer, read-out: Kinetic_solubility
Answer in µM, number only, no unit symbol.

{"molecule": "CC(C)(C)OC(=O)N1CCC(SC(=O)NCCCCN=C=S)CC1", "solubility kinetic [µM]": 77}

Suppose we examine the molecule C[S+]([O-])CCCCN=C=S (racemic) [SULFORAPHANE] ; what solubility kinetic value has been reported?
271

I would be grateful if you could share the reported solubility kinetic for [O-][S+](CCCCN=C=S)c1ccccc1 (configuration not stated) .
213

Reported solubility kinetic, molecule CC(C)(C)OC(=O)N1CCC(SC(=S)NCCCCNC(=O)OCc2ccccc2Cl)CC1 : ____
2

Need solubility kinetic of CC(C)(C)OC(=O)N1CCC(SC(=S)NCCCCNC(=O)Nc2ccncc2)CC1 , thanks.
85

* * *

experiment: Lipophilicity, log D of the compound at pH 7.4 by chromatographic method; type: physicochemical; settings: buffer
Note to self: values exactly at 2 are class 1. So chromatographic logD at or above 2 is class 1, below is class 0.

Could you tell me if the measured chromatographic logD of COC(=O)[C@H](CSC(=S)NCCCC[S+](C)[O-])NC(C)=O (stereo partly drawn) reaches 2 or more?
class 0

Could you verify whether the entry O=C(NCCCCN=C=S)Nc1cccnc1 shows chromatographic logD of no less than 2?
class 1

* * *

experiment: Binding affinity to FLAG/His-tagged Keap1 (unknown origin)/biotinylated full-length FLAG/His/Tev/Avi-tagged Cul3 (unknown origin) expressed in baculovirus infected Sf9 insect cells measured after 1 hr by TR-FRET assay; set-up: species or system Homo sapiens
// reported pIC50 for each item listed
// print number alone

As a guide, the following entries are already answered.
{"compound": "CC(C)(C)OC(=O)N1CCC(SC(=S)NCCCCNC(=O)NC2CCCC2)CC1", "pIC50": 4.4}
{"compound": "CCNC(=O)N1CCC(SC(=S)NCCCCNC(=O)NCc2ccccc2)CC1", "pIC50": 4.4}
{"compound": "O=C(NCCCCN=C=S)OCc1ccncc1", "pIC50": 4.6}
{"compound": "O=C(CCc1ccccc1)NCCCCN=C=S", "pIC50": 4.4}
{"compound": "O=S(=O)(CC1(N2CCC(CN=C=S)C2)COC1)c1ccccc1 (stereo unspecified)", "pIC50": 4.7}

Next up:
Could you share which pIC50 value was measured for O=C(CC1CCCCC1)NCCCCN=C=S ?
4.8

* * *

experiment: Apparent permeability across apical to basolateral side in MDCK-MDR1; format: ADME, cell-based, Canis lupus familiaris; details: dog
measured-endpoint: Papp A→B (×10⁻⁶ cm/s)
Write the number in ×10⁻⁶ cm/s without appending the unit.

Need Papp A→B of CN(C)c1c(N(C)CCCN=C=S)c(=O)c1=O , thanks.
12.5

* * *

molecular target: Keap1/Nrf2 (Homo sapiens, UniProt Q14145+Q16236); assay: Binding affinity to FLAG/His-tagged Keap1 (unknown origin)/biotinylated full-length FLAG/His/Tev/Avi-tagged NRF2 (unknown origin) expressed in baculovirus infected Sf9 insect cells measured after 1 hr by TR-FRET assay
Sequence (Q16236 whole entry): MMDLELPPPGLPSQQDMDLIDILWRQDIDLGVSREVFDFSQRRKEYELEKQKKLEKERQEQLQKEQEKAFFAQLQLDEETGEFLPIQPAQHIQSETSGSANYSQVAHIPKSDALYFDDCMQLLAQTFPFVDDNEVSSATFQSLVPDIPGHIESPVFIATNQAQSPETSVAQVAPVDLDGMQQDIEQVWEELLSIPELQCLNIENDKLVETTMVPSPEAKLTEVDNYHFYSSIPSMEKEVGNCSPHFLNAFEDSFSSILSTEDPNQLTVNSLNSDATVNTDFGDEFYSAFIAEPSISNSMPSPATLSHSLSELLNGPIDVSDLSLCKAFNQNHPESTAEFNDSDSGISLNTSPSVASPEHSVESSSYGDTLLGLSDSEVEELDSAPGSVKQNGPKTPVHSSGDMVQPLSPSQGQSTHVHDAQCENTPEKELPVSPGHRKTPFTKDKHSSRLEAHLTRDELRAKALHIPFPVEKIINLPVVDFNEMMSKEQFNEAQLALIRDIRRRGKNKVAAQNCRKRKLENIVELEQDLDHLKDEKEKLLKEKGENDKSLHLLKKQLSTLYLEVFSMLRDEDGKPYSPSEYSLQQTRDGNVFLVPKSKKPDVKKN
Sequence (Q14145 whole entry): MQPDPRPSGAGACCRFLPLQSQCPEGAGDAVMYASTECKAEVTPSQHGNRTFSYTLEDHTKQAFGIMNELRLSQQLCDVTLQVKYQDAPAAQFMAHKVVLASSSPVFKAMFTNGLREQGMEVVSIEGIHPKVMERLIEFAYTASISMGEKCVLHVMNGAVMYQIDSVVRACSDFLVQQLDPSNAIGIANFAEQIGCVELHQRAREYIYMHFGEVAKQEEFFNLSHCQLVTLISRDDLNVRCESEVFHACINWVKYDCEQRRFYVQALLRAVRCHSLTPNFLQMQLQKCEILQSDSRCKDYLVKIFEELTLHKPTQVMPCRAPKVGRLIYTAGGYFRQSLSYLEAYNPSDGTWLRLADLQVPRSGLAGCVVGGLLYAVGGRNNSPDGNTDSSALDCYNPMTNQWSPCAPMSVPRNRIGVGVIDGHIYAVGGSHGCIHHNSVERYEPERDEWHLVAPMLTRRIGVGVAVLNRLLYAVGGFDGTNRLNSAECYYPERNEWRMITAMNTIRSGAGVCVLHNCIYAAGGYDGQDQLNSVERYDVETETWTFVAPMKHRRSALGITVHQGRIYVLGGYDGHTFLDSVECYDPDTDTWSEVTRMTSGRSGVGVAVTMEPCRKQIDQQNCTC
Classify: t when IC50 is strictly less than 40 µM; f when IC50 is not.

{"compound": "O=S1(=O)CCC(CN=C=S)C1 (stereo unspecified)", "target-system": "Keap1/Nrf2 (Homo sapiens, UniProt Q14145+Q16236)", "class": "f"}

Determine if CC(C)(C)OC(=O)N1CCC(SC(=S)NCCCCNC(=O)Nc2cccnc2)CC1 shows IC50 strictly lower than 40 µM.
f

Does O=C(NCCCCN=C=S)Nc1ccc2c(c1)OCCO2 have IC50 strictly under 40 µM?
t

Consider O=S(=O)(/C=C(\CO)CN1CCC(CN=C=S)CC1)c1ccccc1 . Does its IC50 lie strictly below 40 µM?
t

In the record for Cc1ccccc1[S+]([O-])CCCCN=C=S (stereo unspecified) , is IC50 less than 40 µM?
f

Field: below-cutoff. Rule: recorded IC50 strictly less than 40 µM. Subject: CC(=O)N(C)CC[S+]([O-])CCCCN=C=S (stereo unspecified)
f

# TODO verify IC50 < 40 µM strictly for this compound: [O-][S+](CCCCN=C=S)c1ccccn1 (stereo unspecified)
t

Is IC50 of O=C(NCCCCN=C=S)Nc1ccc2c(c1)OCO2 strictly below 40 µM?
t

API: query returns whether the compound falls strictly under 40 µM in IC50. Query: CC(C)(C)OC(=O)N1CCC(SC(=S)NCCCCNC(=O)Nc2ccc3c(c2)OCO3)CC1
f

Quick check: does O=S(=O)(CCCCN=C=S)c1ccccc1 have IC50 under 40 µM?
f

Is IC50 of O=C(NCCCN=C=S)OCc1ccccc1 strictly below 40 µM?
t

Please check: IC50 for C[S+]([O-])CCCCCN=C=S (stereo unspecified) , strictly under 40 µM or not?
f

Confirm or reject: IC50 of CN1CCC(SC(=S)NCC2CCS(=O)(=O)C2)CC1 (stereo unspecified) lies strictly below 40 µM
f

Quick check: does CNC(=O)NCCCCNC(=S)SC1CCN(C(=O)OC(C)(C)C)CC1 have IC50 under 40 µM?
f

* * *

assay: Binding affinity to FLAG/His-tagged Keap1 (unknown origin)/biotinylated full-length FLAG/His/Tev/Avi-tagged Cul3 (unknown origin) expressed in baculovirus infected Sf9 insect cells measured after 1 hr by TR-FRET assay; set-up: species or system Homo sapiens
measured-endpoint: pIC50
I'd appreciate a reply containing only the number, no unit.

Worked examples follow.
{"compound": "Cc1ccccc1S(=O)(=O)CCCCN=C=S", "number": 5}
{"compound": "CC(C)(C)OC(=O)N1CCC(SC(=S)NCCCCNC(=O)Nc2ccc3nccnc3c2)CC1", "number": 4.8}
{"compound": "CN(C)CCS(=O)(=O)CCCCN=C=S", "number": 4.4}
{"compound": "O=S(=O)(/C=C(\\CO)CN1CCC(CN=C=S)CC1)c1ccccc1", "number": 5.6}
{"compound": "O=S(=O)(CCCCN=C=S)c1ccccn1", "number": 4.3}
{"compound": "O=C(NCCCCN=C=S)OCc1ccccc1Cl", "number": 5.2}
{"compound": "O=C(NCCCN=C=S)OCc1ccccc1", "number": 5}
{"compound": "O=C(CCCCN=C=S)NCc1ccccc1", "number": 4.7}
{"compound": "O=C(NCCCCN=C=S)c1cccnc1", "number": 4.1}
{"compound": "Cn1cc(CCN=C=S)c2ccccc21", "number": 5.2}

Find the recorded pIC50 belonging to O=C(NCCCCN=C=S)c1ccno1 and report it.
4.2

What does the data say about its pIC50? Entry: O=C(NCCCCN=C=S)OCc1ccccc1
5.1

Look up pIC50: C[S+]([O-])CCCCNC(=S)SC1CCN(C(=O)OC(C)(C)C)CC1 (configuration not stated)
4.3

* * *

test: Solubility of the compound in FaSSIF at pH 6.5 using solid sample; type: physicochemical
measured-endpoint: solubility thermodynamic (µg/mL)
Kindly answer with a numeric value in µg/mL, unit omitted.

Looking for the measured solubility thermodynamic of CN(C)c1c(N(C)CCCN=C=S)c(=O)c1=O , can you help?
8000

* * *

experiment: Binding affinity to FLAG/His-tagged Keap1 (unknown origin)/biotinylated full-length FLAG/His/Tev/Avi-tagged Cul3 (unknown origin) expressed in baculovirus infected Sf9 insect cells measured after 1 hr by TR-FRET assay; set-up: species or system Homo sapiens
measured-endpoint: pIC50
Answer with a bare number; do not write a unit.

These solved cases illustrate the format of a correct answer.
{"compound": "CN1CCC(SC(=S)NCCCCNC(=O)OCc2ccccc2Cl)CC1", "pIC50": 5.3}
{"compound": "CN1CCC(SC(=S)NCCCCNC(=O)Nc2ccc3ncsc3c2)CC1", "pIC50": 5.4}
{"compound": "CC(C)(C)OC(=O)N1CCC(SC(=S)NCCCCNC(=O)Nc2ccc3ncsc3c2)CC1", "pIC50": 4.7}
{"compound": "CN1CCC(SC(=S)NCCCCNC(=O)Nc2ccc3nccnc3c2)CC1", "pIC50": 5.1}
{"compound": "O=S1(=O)CCC(CN=C=S)C1 (configuration not stated)", "pIC50": 4.4}

For CC(C)(C)OC(=O)N1CCC(SC(=S)NCCCCNC(=O)Nc2ccc3c(c2)OCO3)CC1 , what is its reported pIC50?
4.4

Requested read-out: pIC50. Entry: CC(=O)NCCCCN=C=S
4.2

Which pIC50 is reported for this compound? O=C(NCCCCN=C=S)NC1CCCC1
4.4

Could you share which pIC50 value was measured for [O-][S+](CCCCN=C=S)c1ccncc1 (configuration not stated) ?
4.4

Field request: pIC50 | item: O=C(NCCCCN=C=S)Nc1ccc2nccnc2c1
5.1

Find the recorded pIC50 belonging to CC(C)(C)OC(=O)N1CCC(SC(=S)NCCCCNC(=O)Nc2ccc3c(c2)OCCO3)CC1 and report it.
4.4

Need pIC50 of C[S+]([O-])CCCCCN=C=S (configuration not stated) , thanks.
4.1

Need pIC50 of CN1CCC(SC(=S)NCCCCNC(=O)Nc2ccc3c(c2)OCCO3)CC1 , thanks.
5

I would be grateful if you could share the reported pIC50 for COC(=O)C(CS(=O)(=O)CCCCN=C=S)NC(C)=O (configuration not stated) .
4.3

What measured pIC50 goes with CC(=O)CCCCN=C=S ?
4.1

// pIC50 lookup, key: CN1CCC(SC(=S)NCCCCNC(=O)NCc2ccccc2)CC1
4.9
